tested target: LMO2-iDAb LMO2dm3 interaction (Homo sapiens, UniProt P25791)
Construct: LMO2 cDNA was cloned into the pEF-RLuc8-MCS and pEF-MCS-RLuc8 plasmids
Sequence (P25791 whole entry): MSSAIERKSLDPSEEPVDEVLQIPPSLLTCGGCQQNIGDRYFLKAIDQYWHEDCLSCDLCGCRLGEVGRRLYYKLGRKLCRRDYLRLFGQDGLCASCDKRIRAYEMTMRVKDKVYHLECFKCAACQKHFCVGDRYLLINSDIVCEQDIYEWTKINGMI
method: LMO2-iDAb LMO2dm3 BRET assay
run parameters: BRET dose response, HEK293T cells, 0.01-50 μM, 22 h
pIC50: −log10 of the molar value.
Binary classification by pIC50, with 5 as an inclusive lower bound for criterion met; all other cases are criterion not met.

Example entries begin here.
>>> label_class("COc1cccc(CN2CCN(c3nc(C(=O)Nc4ccc(-n5cccc5)cc4)co3)CC2)c1")
"criterion not met"
>>> label_class("COc1cccc(CN2CCN(c3nc(C(=O)Nc4ccc(-n5cccc5)cc4)cs3)CC2)c1")
"criterion not met"
>>> label_class("COc1cccc(CN2CCN(c3nc(C(=O)Nc4ccc(OCc5ccccc5)cc4)co3)CC2)c1")
"criterion met"
>>> label_class("COc1ccc(CN2CCN(c3nc(C(=O)Nc4ccc(-n5cccc5)cc4)co3)CC2)cc1")
"criterion not met"
>>> label_class("COc1cccc(CN2CCN(c3nc(C(=O)Nc4ccc(OC)nc4)cs3)CC2)c1")
"criterion met"

State whether the measured pIC50 reaches 5, counting equality as reaching it, for COc1cccc(CN2CCN(c3nc(C(=O)Nc4ccc(OCc5ccccc5)cc4)co3)C2=O)c1
criterion met
